system.under.test: hNAMPT protein (Homo sapiens (Human), UniProt P43490)
Sequence (P43490 whole entry): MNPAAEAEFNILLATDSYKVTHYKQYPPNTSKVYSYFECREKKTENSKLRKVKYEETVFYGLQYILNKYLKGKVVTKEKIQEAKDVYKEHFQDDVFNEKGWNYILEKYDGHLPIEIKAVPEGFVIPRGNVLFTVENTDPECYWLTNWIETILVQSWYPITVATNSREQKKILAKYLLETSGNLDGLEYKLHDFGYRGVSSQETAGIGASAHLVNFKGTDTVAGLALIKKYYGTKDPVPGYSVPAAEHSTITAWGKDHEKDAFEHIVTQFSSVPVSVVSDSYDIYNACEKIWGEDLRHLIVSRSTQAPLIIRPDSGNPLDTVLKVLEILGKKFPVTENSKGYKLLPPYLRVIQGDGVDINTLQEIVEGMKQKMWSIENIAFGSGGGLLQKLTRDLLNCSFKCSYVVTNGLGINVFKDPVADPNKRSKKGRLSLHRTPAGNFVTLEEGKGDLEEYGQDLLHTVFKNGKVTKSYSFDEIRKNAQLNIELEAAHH
assay.name: NAMPT enzyme assay (TR-FRET/HTRF, BodiPY ligand, anti 6His-Tb)
Type: binding
assay.context: compound concentration 1 μM; read-out: Percent Inhibition
measured.endpoint: inhibition at 1 µM (%)
Answers are plain numbers, in %.

Answered examples (4):
compound | system.under.test | unit.annotation | inhibition at 1 µM
CN1CCN(c2nc3cc(C(=O)NCCCn4ccnc4)ccc3nc2-c2ccccc2)CC1=O [Compound I-127] | hNAMPT protein (Homo sapiens (Human), UniProt P43490) | % | 16
O=C(NCCCn1ccnc1)c1ccc2nc(N3CCC4(CC3)Cc3ccccc3O4)c(-c3ccccc3)nc2c1 [Compound I-268] | hNAMPT protein (Homo sapiens (Human), UniProt P43490) | % | 63
O=C(c1ccc2nc(-c3ccc(F)cc3)c(-c3ccc(F)cc3)nc2c1)N1CCc2nocc2C1 [Compound I-266] | hNAMPT protein (Homo sapiens (Human), UniProt P43490) | % | 15
CS(=O)(=O)N1CCN(c2nc3cc(C(=O)NCCCn4ccnc4)ccc3nc2-c2ccccc2)CC1 [Compound I-129] | hNAMPT protein (Homo sapiens (Human), UniProt P43490) | % | 70

For the next question, use this compound.
INPUT: Bench note: what inhibition at 1 µM did O=C(c1ccc2nc(-c3ccc(F)cc3)c(-c3ccc(F)cc3)nc2c1)N1CCc2[nH]ccc2C1 [Compound I-75] show?
OUTPUT: 16
